test system: Ryegrass, Italian (Italian ryegrass, Lolium multiflorum); assay: Test A preemergence, Ryegrass, Italian; format: in vivo; conditions: Preemergence, 500 g ai/ha; 0 to 100 scale (0 no effect, 100 complete control)
Measured Endpoint: Plant response rating, Ryegrass, Italian

The measured Plant response rating, Ryegrass, Italian associated with Cc1cc(C)c(N(S(=O)(=O)C(F)(F)F)S(=O)(=O)C(F)(F)F)cc1-c1cc(Cl)nn(C)c1=O reads 100

Lookup result for Cc1cc(Br)c(NS(=O)(=O)C(F)(F)F)cc1C(=O)N1CCOCC1 ; measured Plant response rating, Ryegrass, Italian: 100

For this molecule ( Cc1cc(F)c(-c2ccnn(C)c2=O)cc1NS(=O)(=O)C(F)(F)F ), measured Plant response rating, Ryegrass, Italian is 100

// COC1CCCN(C(=O)c2cc(NS(=O)(=O)C(F)(F)F)c(Cl)cc2C)C1 (centres unmarked) : Plant response rating, Ryegrass, Italian value = 100

The recorded Plant response rating, Ryegrass, Italian for Cc1cc(C)c(C2=NOC3CCCC23)cc1NS(=O)(=O)C(F)(F)F (centres unmarked) [Compound 166] is 100

For CSC(=O)N(c1cc(C2=NOC3(CCCC3)C2)c(C)cc1C)S(=O)(=O)C(F)(F)F the molecule record lists Plant response rating, Ryegrass, Italian as 60

Value of Plant response rating, Ryegrass, Italian reported for the molecule Cc1cc(C)c(C2=NOC3(C2)CC(C)OC(C)C3)cc1NS(=O)(=O)C(F)(F)F (single isomer, unassigned) is 100

Sure, the documented Plant response rating, Ryegrass, Italian for Cc1cc(C)c(C2=NOC3(CCOCC3)C2)cc1NS(=O)(=O)C(F)(F)F is 100

Reported Plant response rating, Ryegrass, Italian ( Cc1cc(Cl)c(NS(=O)(=O)C(F)(F)F)cc1C1=NOC(C)(C)C1 ) = 100

// Plant response rating, Ryegrass, Italian lookup, molecule = Cc1cc(C)c(N(S(=O)(=O)C(F)(F)F)S(=O)(=O)C(F)(F)F)cc1C1=NOC2(CCCCC2)C1 , result: 90

Plant response rating, Ryegrass, Italian in this record for CCN(CC)C(=O)c1cc(NS(=O)(=O)C(F)(F)F)c(C)cc1C : 100

get_value(item= Cc1cc(C)c(N(S(C)(=O)=O)S(=O)(=O)C(F)(F)F)cc1-c1cc(Cl)nn(C)c1=O , readout=Plant response rating, Ryegrass, Italian) returns 80

The molecule listed as Cc1c(NS(=O)(=O)C(F)(F)F)cc(C(=O)N2CC(C)OC(C)C2)c(C)c1F (centres unmarked) has a reported Plant response rating, Ryegrass, Italian of 90

GET /value?item= COc1cc(C)c(NS(=O)(=O)C(F)(F)F)cc1-c1ccnn(C)c1=O &field=Plant response rating, Ryegrass, Italian returns 50

Form field Plant response rating, Ryegrass, Italian, entry CCn1nccc(-c2cc(NS(=O)(=O)C(F)(F)F)c(C)cc2F)c1=O : 90

// Plant response rating, Ryegrass, Italian lookup, molecule = Cc1cc(C)c(C2=NOC3CCCC23)cc1NS(=O)(=O)C(F)(F)F (centres unmarked) [Compound 164] , result: 100

Plant response rating, Ryegrass, Italian measured on Cc1cc(C)c(N(S(=O)(=O)C(F)(F)F)S(=O)(=O)C(F)(F)F)cc1C1=NOC(C(C)(C)C)C1 (centres unmarked) = 80

Entry under test: Cc1cc(Cl)c(N(S(=O)(=O)C(F)(F)F)S(=O)(=O)C(F)(F)F)cc1C1=NOC2(CCCCC2)C1 . Its Plant response rating, Ryegrass, Italian was 100

// Plant response rating, Ryegrass, Italian lookup, molecule = Cc1cc(C)c(-c2cc(Cl)nn(C)c2=O)cc1NS(=O)(=O)C(F)(F)F , result: 100

For Cc1cc(Cl)c(NS(=O)(=O)C(F)(F)F)cc1C1=NOC2(CCCCC2)C1 the molecule record lists Plant response rating, Ryegrass, Italian as 100

* * *

system: barnyardgrass (Echinochloa crus-galli); assay: Test A postemergence, barnyardgrass; format: in vivo; details: Postemergence, 500 g ai/ha; visual injury, 0 to 100 scale (0 no effect, 100 complete control), approx. 10 days
Consider the following compounds; for each one, report its Plant response rating, Barnyardgrass.
Number, no unit, nothing else.

Sample CCc1cc(-c2cc(N(S(=O)(=O)C(F)(F)F)S(=O)(=O)C(F)(F)F)c(C)cc2C)c(=O)n(C)n1 ; Plant response rating, Barnyardgrass observed: 80

Looking up Cc1cc(Br)c(NS(=O)(=O)C(F)(F)F)cc1C(=O)N1CCOCC1 , I found its Plant response rating, Barnyardgrass recorded as 80

For reference, reported Plant response rating, Barnyardgrass for Cc1cc(Cl)c(NS(=O)(=O)C(F)(F)F)cc1C(=O)N1CC(C)OC(C)C1 (stereo not drawn) stands at 80

* * *

So I've got a bunch of compounds here, and I need their Kochia plant response rating values.
Test system: kochia (Bassia scoparia)
Assay: Test A preemergence, kochia
Type: in vivo
Settings: Preemergence, 125 g ai/ha; visual injury on 0 to 100 scale (0 no effect, 100 complete control), approximately 10 days
Text: Seeds of plant species selected from barnyardgrass (Echinochloa crus-galli), kochia (Bassia scoparia), ragweed (common ragweed, Ambrosia artemisiifolia), Ryegrass, Italian (Italian ryegrass, Lolium multiflorum), Foxtail, Giant (giant foxtail, Setaria faberi), and pigweed (Amaranthus retroflexus) were planted into a blend of loam soil and sand and treated preemergence with a directed soil spray using test chemicals formulated in a non-phytotoxic solvent mixture which included a surfactant. […]
// keep it numeric: no unit symbol after the value

Given item Cc1cc(C)c(-c2ccnn(CC(C)C)c2=O)cc1NS(=O)(=O)C(F)(F)F [Compound 77] , the value recorded as its Kochia plant response rating is 0

The compound listed as Cc1cc(C)c(C2=NOC(C(C)(C)C)C2)cc1NS(=O)(=O)C(F)(F)F (stereo not drawn) [Compound 108] has a reported Kochia plant response rating of 80

Reported Kochia plant response rating for Cc1cc(C)c(N(S(=O)(=O)C(F)(F)F)S(=O)(=O)C(F)(F)F)cc1-c1ccnn(C)c1=O [Compound 76] was 60

Reported Kochia plant response rating for Cc1cc(C)c(N(S(=O)(=O)C(F)(F)F)S(=O)(=O)C(F)(F)F)cc1C1=NOC2(CCC(C)(C)CC2)C1 [Compound 139] was 0

// Kochia plant response rating lookup, compound = Cc1cc(C)c(-c2ccnn(C)c2=O)cc1NS(=O)(=O)C(F)(F)F [Compound 80] , result: 80

Lab book: Kochia plant response rating of COc1cc(C)c(NS(=O)(=O)C(F)(F)F)cc1-c1ccnn(C)c1=O [Compound 81] noted as 0

For reference, reported Kochia plant response rating for Cc1cc(C(F)(F)F)c(C(=O)N(C)C)cc1NS(=O)(=O)C(F)(F)F [Compound 133] stands at 0

The compound listed as Cc1cc(C)c(C(=O)N2COC(C)(C)C2)cc1NS(=O)(=O)C(F)(F)F [Compound 112] shows Kochia plant response rating equal to 60

Entry Cc1cc(C)c(C2=NOC3CCCC23)cc1NS(=O)(=O)C(F)(F)F (stereo not drawn) [Compound 164] , Kochia plant response rating reported as 100

The reported value for Cc1cc(C)c(N2CC3(CCOCC3)OC2=O)cc1NS(=O)(=O)C(F)(F)F [Compound 156] in terms of Kochia plant response rating is 50

The recorded Kochia plant response rating for entry Cc1cc(C)c(-c2cc(C(F)(F)F)nn(C)c2=O)cc1NS(=O)(=O)C(F)(F)F [Compound 71] equals 80

Sample COC1CCCN(C(=O)c2cc(N(COC(C)=O)S(=O)(=O)C(F)(F)F)c(C)cc2C)C1 (stereo not drawn) [Compound 96] ; Kochia plant response rating observed: 0

* * *

tested on: corn (Zea mays); experiment: Test A postemergence, corn; format: in vivo; conditions: Postemergence, 125 g ai/ha; 0 to 100 scale (0 no effect, 100 complete control)
Output True for records whose Plant response rating, Corn is lower than 10, False for records at or above 10.

hey, is Plant response rating, Corn for Cc1cc(Cl)c(C(=O)N(C)C)cc1NS(=O)(=O)C(F)(F)F lower than 10 or not? True

Hi there! Is Plant response rating, Corn for Cc1cc(F)c(C(=O)N2CCOCC2)cc1NS(=O)(=O)C(F)(F)F below 10, do you know? False

Hello, I'm reviewing records and need to know if Plant response rating, Corn of Cc1cc(C)c(C2=NOC3(CCSCC3)C2)cc1NS(=O)(=O)C(F)(F)F is below 10. Could you check? False

Dear reviewer, please state whether Cc1cc(F)c(C(=O)N2CC(C)OC(C)C2)cc1N(S(=O)(=O)C(F)(F)F)S(=O)(=O)C(F)(F)F (stereo not drawn) has Plant response rating, Corn strictly beneath 10. True

Determine whether this compound shows Plant response rating, Corn lower than 10 (ties excluded): Cc1cc(C)c(C(=O)N2CCC(F)(F)C2)cc1NS(=O)(=O)C(F)(F)F True

# strict comparison: is reported Plant response rating, Corn < 10? input = Cc1cc(F)c(C(=O)N2CC(C)OC(C)C2)cc1NS(=O)(=O)C(F)(F)F (stereo not drawn) True

Does this compound meet the criterion Plant response rating, Corn < 10? Cc1cc(C)c(C2=NOC3(CCC(F)(F)CC3)C2)cc1NS(=O)(=O)C(F)(F)F False

Given the entry Cc1cc(C)c(C2=NOC3(C2)CC(C)CC(C)C3)cc1NS(=O)(=O)C(F)(F)F (single isomer, unassigned) [Compound 168] , would its reported Plant response rating, Corn be below 10? True
